Cited source for all entries: patent US20260248783A1

target: extracellular domains of PD-L1 (Homo sapiens); construct: specifically dimerize the extracellular domains of PD-L1; experiment: PD-L1 Dimerization; conditions: PD-L1-Eu and PD-L1-A2, ratio 665 nm/615 nm
Sequence (Q9NZQ7 19-238 limits assumed): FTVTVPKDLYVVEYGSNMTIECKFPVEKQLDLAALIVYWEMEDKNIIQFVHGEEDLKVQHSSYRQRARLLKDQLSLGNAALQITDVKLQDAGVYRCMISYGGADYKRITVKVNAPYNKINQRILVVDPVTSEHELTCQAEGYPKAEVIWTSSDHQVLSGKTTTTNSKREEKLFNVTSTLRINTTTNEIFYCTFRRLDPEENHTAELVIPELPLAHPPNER
Listing of recorded EC50 by entry.

Req: Name the recorded EC50 for Cc1cn2nc(-c3cccc(-c4cccc(-c5cc6c(=O)n(CCN7CC[C@H](C(=O)O)C7)c(C)cn6n5)c4Cl)c3Cl)cc2c(=O)n1CCN1CC[C@H](C(=O)O)C1 [Compound 47] .
Resp: 50 to 100 nM

Req: Return reported EC50; argument: Cc1cn2cc(-c3cccc(-c4cccc(-c5cc6c(=O)n(CCNCCO)c(C)cn6c5)c4Cl)c3Cl)cc2c(=O)n1CCNCCO [Compound 51]
Resp: 50 to 100 nM

---
Req: Value lookup for EC50; key = Cc1cn2nc(-c3cccc(-c4cccc(-c5cc6c(=O)n(CCN[C@@](C)(CO)C(=O)O)c(C)cn6n5)c4Cl)c3Cl)cc2c(=O)n1CCN[C@@](C)(CO)C(=O)O [Compound 95]
Resp: ≥ 100 nM

====

The molecules listed here are annotated with their IC50.
target: PD-1/PD-L1 (Homo sapiens, UniProt Q9NZQ7); construct: Recombinant human PD-L1 protein (19-238) with a Histag at the C-terminus; PD1-H5257 (PD-1); experiment: PD-1/PD-L1 Homogeneous Time-Resolved Fluorescence (HTRF) Binding Assay; settings: PD-1/PD-L1 HTRF activity; 3 nM PD1, 10 nM PD-L1, 25° C.
Sequence (Q9NZQ7 19-238): as the sequence (Q9NZQ7 19-238 limits assumed) above

Example results:
Req: Record lookup: for PD-1/PD-L1 (Homo sapiens, UniProt Q9NZQ7), what IC50 belongs to `CCc1nn2cc(-c3cccc(-c4cccc(-c5cc6c(=O)n(CCN[C@@H](CO)C(=O)O)c(CC)nn6c5)c4Cl)c3Cl)cc2c(=O)n1CCN[C@@H](CO)C(=O)O` ?
Resp: 10 to 100 nM

Req: Item: `O=C1CC[C@@H](Cn2cnc3[nH]c(-c4cccc(-c5cccc(-c6cc7c(=O)n(C[C@@H]8CCC(=O)N8)cnc7[nH]6)c5Cl)c4Cl)cc3c2=O)N1` Test system: PD-1/PD-L1 (Homo sapiens, UniProt Q9NZQ7) Read-out: IC50 Value: ?
Resp: 10 to 100 nM

Next:
Req: Hello, I am looking for reported IC50 with PD-1/PD-L1 (Homo sapiens, UniProt Q9NZQ7) for `O=C1CC[C@@H](Cn2ccn3cc(-c4cccc(-c5cccc(-c6cc7c(=O)n(C[C@@H]8CCC(=O)N8)ccn7c6)c5Cl)c4Cl)cc3c2=O)N1` . Could you help?
Resp: 10 to 100 nM

====

Molecular target: PD-1/PD-L1 (Homo sapiens)
Construct: Recombinant human PD-L1 protein (19-238) with a Histag at the C-terminus; PD1-H5257 (PD-1)
Assay: PD-1/PD-L1 Homogeneous Time-Resolved Fluorescence (HTRF) Binding Assay
Conditions: PD-1/PD-L1 HTRF activity; 3 nM PD1, 10 nM PD-L1, 25° C.
Method: Example 107. PD-1/PD-L1 Homogeneous Time-Resolved Fluorescence (HTRF) Binding Assay The assays were conducted in a standard black 384-well polystyrene plate with a final volume of 20 μL. Inhibitors were first serially diluted in DMSO and then added to the plate wells before the addition of other reaction components. […] After centrifugation, the plate was incubated at 25° C. for 60 min. before reading on a PHERAstar FS plate reader (665 nm/620 nm ratio). […]
pIC50: −log10 of the molar value.
experimental endpoint: pIC50

Req: Any idea what its pIC50 is? The compound is Cc1cn2nc(-c3cccc(-c4cccc(-c5cc6c(=O)n(C[C@@H]7CCC(=O)N7)c(C)cn6n5)c4Cl)c3Cl)cc2c(=O)n1C[C@@H]1CCC(=O)N1 [Compound 29]
Resp: > 8.00

Others:
Req: Name the recorded pIC50 for Cc1cn2nc(-c3cccc(-c4cccc(-c5cc6c(=O)n(C[C@H]7CCNC7)c(C)cn6n5)c4Cl)c3Cl)cc2c(=O)n1C[C@H]1CCNC1 [Compound 81] .
Resp: 7.00 to 8.00

Req: Consider the compound Cc1cn2nc(-c3cccc(-c4cccc(-c5cc6c(=O)n(CCN7CCOCC7C(=O)O)c(C)cn6n5)c4Cl)c3Cl)cc2c(=O)n1CCN1CCOCC1C(=O)O (centres unmarked) [Compound 86] and give its measured pIC50.
Resp: ≤ 7.00

Req: Tell me the measured pIC50 of CC(=O)NCCNCc1cn2cc(-c3cccc(-c4cccc(-c5cc6c(=O)n(C[C@@H]7CCC(=O)N7)c(CNCCNC(C)=O)cn6c5)c4Cl)c3Cl)cc2c(=O)n1C[C@@H]1CCC(=O)N1 [Compound 73] , please.
Resp: 7.00 to 8.00

Req: May I ask what pIC50 has been recorded for O=C(O)Cn1cnn2cc(-c3cccc(-c4cccc(-c5cc6c(=O)n(CC(=O)O)cnn6c5)c4Cl)c3Cl)cc2c1=O [Compound 23] ?
Resp: ≤ 7.00

Req: # get_value(readout='pIC50', item= Cc1cn2nc(-c3cccc(-c4cccc(-c5cc6c(=O)n(CCNC7(C(=O)O)CC(O)C7)c(C)cn6n5)c4Cl)c3Cl)cc2c(=O)n1CCNC1(C(=O)O)CC(O)C1 (centres unmarked) [Compound 85] )
Resp: 7.00 to 8.00

====

target: PD-1/PD-L1 (Homo sapiens); construct: Recombinant human PD-L1 protein (19-238) with a Histag at the C-terminus; PD1-H5257 (PD-1); assay: PD-1/PD-L1 Homogeneous Time-Resolved Fluorescence (HTRF) Binding Assay; conditions: PD-1/PD-L1 HTRF activity; 3 nM PD1, 10 nM PD-L1, 25° C.
pIC50: −log10 of the molar value. Where a name gives a salt, the structure may show the parent alone.
experimental endpoint: pIC50

Req: Need pIC50, item Cc1cn2nc(-c3cccc(-c4cccc(-c5cc6c(=O)n(CCN[C@@H](CN)C(=O)O)c(C)cn6n5)c4Cl)c3Cl)cc2c(=O)n1CCNC(CN)C(=O)O (stereo in doubt)
Resp: ≤ 7.00

Req: Reported pIC50 for `Cn1c(CCN[C@@H](CO)C(=O)O)cn2nc(-c3cccc(-c4cccc(-c5cc6c(=O)n(C)c(CCN[C@@H](CO)C(=O)O)cn6n5)c4Cl)c3Cl)cc2c1=O` : what is it?
Resp: > 8.00

Req: What does the record list as pIC50 for Cc1cn2nc(-c3cccc(-c4cccc(-c5cc6c(=O)n(C[C@@H]7CCCN7)c(C)cn6n5)c4Cl)c3Cl)cc2c(=O)n1C[C@@H]1CCCN1 [Compound 36, dihydrochloride] ?
Resp: > 8.00

Req: Suppose we examine the compound `Cn1c(CN2CC[C@H](C(=O)O)C2)cn2nc(-c3cccc(-c4cccc(-c5cc6c(=O)n(C)c(CN7CC[C@H](C(=O)O)C7)cn6n5)c4Cl)c3Cl)cc2c1=O` ; what pIC50 value has been reported?
Resp: 7.00 to 8.00

Req: Query: pIC50; subject: `Cn1c(CN[C@@H](CO)C(=O)O)cn2nc(-c3cccc(-c4cccc(-c5cc6c(=O)n(C)c(CN[C@@H](CO)C(=O)O)cn6n5)c4Cl)c3Cl)cc2c1=O`
Resp: 7.00 to 8.00

====

target: PD-1/PD-L1 (Homo sapiens, UniProt Q9NZQ7); construct: Recombinant human PD-L1 protein (19-238) with a Histag at the C-terminus; purchased AcroBiosystems PD1-H5229 (PD-L1); PD1-H5257 (PD-1); assay: PD-1/PD-L1 Homogeneous Time-Resolved Fluorescence (HTRF) Binding Assay; conditions: PD-1/PD-L1 HTRF activity; 3 nM PD1, 10 nM PD-L1, 25° C.
experimental endpoint: IC50

Req: Item under review: `Cc1c(-c2cc3c(=O)n(C[C@@H]4CCC(=O)N4)cnn3c2)cccc1-c1cccc(-c2cc3c(=O)n(C[C@@H]4CCC(=O)N4)cnn3c2)c1C` . Reported IC50?
Resp: < 10 nM

Req: Data request, read-out IC50, for `CC(=O)NCCNCCn1c(C)cn2cc(-c3cccc(-c4cccc(-c5cc6c(=O)n(CCNCCNC(C)=O)c(C)cn6c5)c4Cl)c3Cl)cc2c1=O`
Resp: < 10 nM

More entries:
Req: Item `Cc1cn2nc(-c3cccc(-c4cccc(-c5cc6c(=O)n(CCCN[C@@H](CO)C(=O)O)c(C)cn6n5)c4Cl)c3Cl)cc2c(=O)n1CCCN[C@@H](CO)C(=O)O` has what recorded IC50?
Resp: 10 to 100 nM

Req: Find the recorded IC50 belonging to `O=C1CC[C@@H](Cn2ccn3nc(-c4cccc(-c5cccc(-c6cc7c(=O)n(C[C@@H]8CCC(=O)N8)ccn7n6)c5Cl)c4Cl)cc3c2=O)N1` and report it.
Resp: < 10 nM

Req: Quick one: IC50 for `O=C1CC[C@@H](Cn2ccn3c(F)c(-c4cccc(-c5cccc(-c6nc7c(=O)n(C[C@@H]8CCC(=O)N8)ccn7c6F)c5Cl)c4Cl)nc3c2=O)N1` ?
Resp: ≥ 100 nM

Req: # lookup: IC50 of `Cc1cn2nc(-c3cccc(-c4cccc(-c5cc6c(=O)n(CCNC7(C(=O)O)COC7)c(C)cn6n5)c4Cl)c3Cl)cc2c(=O)n1CCNC1(C(=O)O)COC1`
Resp: ≥ 100 nM

Req: Return reported IC50; argument: `O=C1NCCN1CCn1cnn2cc(-c3cccc(-c4cccc(-c5cc6c(=O)n(CCN7CCNC7=O)cnn6c5)c4Cl)c3Cl)cc2c1=O`
Resp: ≥ 100 nM

Req: Quick one: IC50 for `O=C1CC[C@@H](CN2CCn3cc(-c4cccc(-c5cccc(-c6cc7n(c6)CCN(C[C@@H]6CCC(=O)N6)C7=O)c5Cl)c4Cl)cc3C2=O)N1` ?
Resp: ≥ 100 nM

Req: Returns the measured IC50 for the input molecule. Input: `Cn1c(-c2cccc(-c3cccc(-c4nc5c(=O)n(C[C@@H]6CCC(=O)N6)ccc5n4C)c3Cl)c2Cl)nc2c(=O)n(C[C@@H]3CCC(=O)N3)ccc21`
Resp: ≥ 100 nM

Req: Dear colleague, I am looking for the recorded IC50 of the following molecule: `Cc1cn2cc(-c3cccc(-c4cccc(-c5cc6c(=O)n(CCN7C[C@@H](O)C[C@H]7C(=O)O)c(C)cn6c5)c4Cl)c3Cl)cc2c(=O)n1CCN1C[C@@H](O)C[C@H]1C(=O)O`
Resp: 10 to 100 nM

Req: Quick one: IC50 of `Cc1cn2nc(-c3cccc(-c4cccc(-c5cc6c(=O)n(CCN[C@@H](CCO)C(=O)O)c(C)cn6n5)c4Cl)c3Cl)cc2c(=O)n1CCN[C@@H](CCO)C(=O)O` ?
Resp: 10 to 100 nM
